# Assay system: human CD40 on cells (HEK293 stable transfectants, HEK-Blue CD40 cells, human B cells, monocytic cells, … (human, UniProt P25942 21-277))
# Sequence (P25942 21-277 limits assumed): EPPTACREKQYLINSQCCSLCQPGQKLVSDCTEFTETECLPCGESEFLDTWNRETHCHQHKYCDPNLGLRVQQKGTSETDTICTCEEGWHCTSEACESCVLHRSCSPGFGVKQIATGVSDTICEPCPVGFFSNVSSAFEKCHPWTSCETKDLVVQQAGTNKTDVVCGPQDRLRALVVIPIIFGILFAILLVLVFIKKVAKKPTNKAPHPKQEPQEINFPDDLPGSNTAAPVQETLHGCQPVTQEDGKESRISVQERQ
# Assay procedure: cell-based or functional assay
Tag: TRUE if measured moDC activation (IL-12p70) is not below 800 pg/mL, FALSE if it is.

AD163.9.3 (antibody, V domains shown, mouse hybridoma antibody; also called muAb1) VH: QVQLQQPGAELVKPGASVKMSCKASGYTFTSYWITWVKQRPGQGLEWIGEINPGSGSTNYNEKFKSKATLTVDTSSSTAYMQLSSLTSEDSAVYYCARNRGTGDYWGQGTTLTVSS VL: DVVMTQTPLSLPVSLGDQASISCRSSQSLVHSYGNTYLHWYLQKPGQSPKFLIYKVSNRISGVPDRLSGSGSGTDFTLKISRVEPEDLGVYFCSQSTHVPYTFGGGTKLEIK; TRUE
AD164.14.6 (antibody, V domains shown, mouse hybridoma antibody; also called muAb9) VH: DVQLQESGPGLVKPSQSLSLTCSVTGYSITSNYYWNWIRQFPGNKLEWMGYIRYDGSNNYNPSLKNRISITRDTSKNQFFLKLNSVTTEDTATYYCARLDYWGQGTTLTVSS VL: DAVMTQTPLSLPVSLGDQASISCRSSQSLENTNGNTFLNWFLQKPGQSPQLLIYRVSNRFSGVPDRFSGSGSGTDFTLKISRVEAEDLGVYFCLQVTHVPFTFGSGTKLEIK; TRUE
AD163.162.1 (antibody, V domains shown, mouse hybridoma antibody; also called muAb6) VH: QVQLQQPGAELVRPGSSVKLSCKASGYTFTSYWMHWVKQRPIQGLEWIGNIDPSNGETHYNQKFKDKATLTVDKSSSTAYMQLSSLTSEDSAVYYCARERIYYSGSTYDGYFDVWGTGTTVTVSS VL: QIVLTQSPAIMSASPGEKVTMTCSASSSLSYMHWYQQKSGTSPKRWIYDTSKLASGVPARFSGSGSGTSYSLTISSMEAEDAATYYCQQWSSNPWTFGGGTKLEIK; TRUE
AD163.27.12 (antibody, V domains shown, mouse hybridoma antibody; also called muAb7) VH: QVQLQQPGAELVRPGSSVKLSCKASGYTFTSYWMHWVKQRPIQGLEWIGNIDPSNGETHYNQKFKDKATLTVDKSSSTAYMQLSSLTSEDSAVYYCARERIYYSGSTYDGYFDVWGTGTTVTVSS VL: QIVLTQSPAIMSASPGEKVTMTCSASSSLSYMHWYQQKSGTSPKRWIYDTSKLASGVPARFSGSGSGTSYSLTISSMEGEDGATYYCQQWSSNPWTFGGGTKLEIK; TRUE
AD166.4.4 (antibody, V domains shown, mouse hybridoma antibody; also called muAb2) VH: QVQLQQSGAELMKPGASAKLSCKATGYTFTGYWIQWVKQRPGHGLEWIGEILPGGDHTKYNEKFRGKATFTSDTSSNTVYMQLSSLTTEDSAIYYCARVGGDYWGQGTTLTVSS VL: DVVMTQTPLSLPVSLGDQASISCRSSQSLVNSNENTYLHWYLQKPGQSPKLLIYKVFNRYSGVPDRFSGSGSGTDFTLKISRVEAEDLGVYFCFQSTHVPWTFGGGTKLEIK; FALSE
AD163.7.2 (antibody, V domains shown, mouse hybridoma antibody; also called muAb8) VH: QVQLQQSGPELVKSGASVKISCKASGYTFTDYYINWVKQRPGQGLEWIGWIFPGSGSVYCNEQFKGQATLTVDRSSSTAYMLLSSLTSEDSAVYFCASSLGKFAYWGQGTLVTVSA VL: DIVMTQSQKFMSTTVGDRVSITCKASQSVVTAVAWYQQKPGQSPKLLIYSASNRYTGVPDRFTGSGSGTDFALTIRTMQSEDLADYFCQQYSSYPYTFGGGTKLEIK; TRUE
AD164.76.3 (antibody, V domains shown, mouse hybridoma antibody; also called muAb10; AD164.76.2) VH: DVQLQESGPGLVKPSQSLSLTCSVTGYSITSNYYWNWIRQFPGNKLEWMGYIRYDGSNNYNPSLKNRISITRDTSKNQFFLRLNSVTTEDTATYYCTRLDYWGQGTTLTVSS VL: DAVMTQTPLSLPVSLGDQASISCRSSQSLENSNGNTFLNWFLQKPGQSPQLLIYRISNRFSGVPDRFSGSGSGTDFTLKISRVEAEDLGVYFCLQVTHVPFTFGSGTKLEIK; FALSE
AD165.1.2 (antibody, V domains shown, mouse hybridoma antibody; also called muAb5) VH: DVQLQESGPGLVEPSQSLFLTCSVTGYSITTNYNWNWIRQFPGNKLEWMGYIRHDGTNNYNPSLKNRISIIRDTPKNQFFLKLNSVTTEDTAIYFCTRLDYWGQGTSVTVSS VL: DAVMTQTPLSLPVSLGDQASISCRSSQSLENSYGNTFLNWFLQRPGQSPQLLIYRVSNRFCGVPDRFSGSGSGTDFTLKISRVEAEDLGIYFCLQVTHVPYTFGGGTKLEIK; FALSE

Form field: moDC activation (IL-12p70) at least 800 pg/mL? Entry: AD175.14.11 (antibody, V domains shown, mouse hybridoma antibody; also called muAb3) VH: EVQLQQSGPELVKPGASVKISCKASGYTFTDYYMNWVKQSHGKSLEWIGDINPNNGGTSYNQKFKGKATLTVDKSSSTAYMELRSLTSEDSAVYYCARRGGLGRGTYALDYWGQGTSVTVSS VL: DIQMTQTTSSLSASLGDRVTISCRASQDISNYLNWYQQKPDGTVKPLIYYTSRLHLGVPSRFSGSGSGTDYSLTISNLEQEDIATYFCQQGNTLPLTFGAGTKLELK FALSE

Tell me whether moDC activation (IL-12p70) is at least 800 pg/mL here: AD163.10.7 (antibody, V domains shown, mouse hybridoma antibody; also called muAb4) VH: LVQPGGSLSLSCAASGFTFSDYYMSWVRQPPGKALEWLGFIRNKANGYTTEFSASVKGRFTISRDNSQSILYLQMNALRAEDSATYYCARYGGLRQGWYFDVWGTGTTVTVSS VL: DIQMTQTTSSLSASLGDRVTISCRASQDIRNYLNWYQQKPDGTVKLLIYYTSRLHSGVPSRFSGSGSGTDYSLTISNLEQEDIATYFCQQGKTLPWTFGGGSKLEMK TRUE
